# experiment description: Unit input response, intravenous bolus plasma concentration
# Assay type: in vivo
# assay conditions: human, 20.92 days, read-out: Plasma Concentration of API A
measurement label: concentration at 20.92 days (ng/mL)
Give a bare numeral; the unit ng/mL is implied.

Lookup: Consider the compound CC(C)(C#Cc1ccc(-c2ccc(Cl)c3c(NS(C)(=O)=O)nn(CC(F)(F)F)c23)c([C@H](Cc2cc(F)cc(F)c2)NC(=O)Cn2nc(C(F)(F)F)c3c2C(F)(F)[C@@H]2C[C@H]32)n1)S(C)(=O)=O [API A, Lenacapavir] and give its measured concentration at 20.92 days.
Found: 1.71

---

# experiment description: Unit input response, intravenous bolus plasma concentration
# Assay type: in vivo
# assay conditions: human, 0.00 days, read-out: Plasma Concentration of API A
measurement label: concentration at 0 days (ng/mL)
Your answer is read as ng/mL, so omit the unit and give the number.

Lookup: Would you kindly share the measured concentration at 0 days for CC(C)(C#Cc1ccc(-c2ccc(Cl)c3c(NS(C)(=O)=O)nn(CC(F)(F)F)c23)c([C@H](Cc2cc(F)cc(F)c2)NC(=O)Cn2nc(C(F)(F)F)c3c2C(F)(F)[C@@H]2C[C@H]32)n1)S(C)(=O)=O [API A, Lenacapavir] ?
Found: 0
